target: Insulin-like growth factor 1 receptor (Homo sapiens)
Sequence (P08069 31-736 limits assumed): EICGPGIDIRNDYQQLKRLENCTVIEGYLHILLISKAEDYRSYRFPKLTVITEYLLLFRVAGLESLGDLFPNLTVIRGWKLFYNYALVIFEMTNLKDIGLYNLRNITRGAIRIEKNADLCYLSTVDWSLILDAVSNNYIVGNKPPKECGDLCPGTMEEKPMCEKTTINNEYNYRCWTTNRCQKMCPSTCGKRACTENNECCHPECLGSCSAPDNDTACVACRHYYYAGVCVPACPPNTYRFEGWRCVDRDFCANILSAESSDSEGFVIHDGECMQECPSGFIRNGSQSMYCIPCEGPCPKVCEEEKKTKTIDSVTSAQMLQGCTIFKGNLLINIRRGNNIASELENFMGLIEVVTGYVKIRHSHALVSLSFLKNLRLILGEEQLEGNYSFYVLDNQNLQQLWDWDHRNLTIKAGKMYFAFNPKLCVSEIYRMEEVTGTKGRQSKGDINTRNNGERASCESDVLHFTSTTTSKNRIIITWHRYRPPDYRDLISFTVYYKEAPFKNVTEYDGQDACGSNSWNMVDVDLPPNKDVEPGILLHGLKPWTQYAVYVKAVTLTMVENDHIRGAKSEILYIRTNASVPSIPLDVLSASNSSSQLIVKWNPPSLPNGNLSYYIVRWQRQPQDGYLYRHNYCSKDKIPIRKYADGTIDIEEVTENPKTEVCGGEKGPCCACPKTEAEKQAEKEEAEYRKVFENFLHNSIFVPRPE
Sequence (P08069 741-1367 limits assumed): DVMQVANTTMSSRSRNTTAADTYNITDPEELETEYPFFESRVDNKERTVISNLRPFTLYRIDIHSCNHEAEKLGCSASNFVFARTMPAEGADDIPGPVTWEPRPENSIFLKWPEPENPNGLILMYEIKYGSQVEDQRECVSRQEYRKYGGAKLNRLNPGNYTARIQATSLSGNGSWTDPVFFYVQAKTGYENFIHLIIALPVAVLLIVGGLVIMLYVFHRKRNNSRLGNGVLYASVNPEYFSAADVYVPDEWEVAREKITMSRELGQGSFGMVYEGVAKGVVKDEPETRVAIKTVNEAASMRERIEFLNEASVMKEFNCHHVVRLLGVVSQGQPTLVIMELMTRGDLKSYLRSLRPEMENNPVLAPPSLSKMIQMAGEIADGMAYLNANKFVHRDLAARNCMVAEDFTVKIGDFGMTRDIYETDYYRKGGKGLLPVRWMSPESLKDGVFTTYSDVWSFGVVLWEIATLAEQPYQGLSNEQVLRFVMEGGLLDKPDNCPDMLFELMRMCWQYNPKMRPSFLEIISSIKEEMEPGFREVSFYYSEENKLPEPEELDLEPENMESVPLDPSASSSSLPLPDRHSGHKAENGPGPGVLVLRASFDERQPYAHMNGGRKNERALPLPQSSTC
REPORTED_ENDPOINT: IC50

Task item: Any idea what its IC50 is? The compound is Nc1nc(NCCNc2ncc(-n3ccnc3)c(-c3ccc(Cl)cc3Cl)n2)ccc1[N+](=O)[O-]
Reply: > 2 µM

###

assay: Half life in diabetic ZDF fa/fa rat at 8 mg/kg administered 4.5 and 0.5 hrs prior to oral glucose challenge; assay type: ADME, organism-based; settings: in vivo
REPORTED_ENDPOINT: half-life (min)
Please reply with the bare figure in min and do not write the unit itself.

Examples with answers:
{"STRUCTURE_STRING": "Nc1nc(NCCNc2ncc(-c3ncc[nH]3)c(-c3ccc(Cl)cc3Cl)n2)ccc1[N+](=O)[O-]", "half-life (min)": 46}
{"STRUCTURE_STRING": "N#Cc1ccc(NCCNc2ncc(-c3ncc[nH]3)c(-c3ccc(Cl)cc3Cl)n2)nc1", "half-life (min)": 52}
{"STRUCTURE_STRING": "Cc1c[nH]c(-c2cnc(NCCNc3ccc(C#N)cn3)nc2-c2ccc(Cl)cc2Cl)n1", "half-life (min)": 92}
{"STRUCTURE_STRING": "O=[N+]([O-])c1ccc(NCCNc2ncc(-c3ncc[nH]3)c(-c3ccc(Cl)cc3Cl)n2)nc1", "half-life (min)": 143}

Below: the item to evaluate.
Task item: Query: half-life; subject: Cc1c[nH]c(-c2cnc(NCCNc3ccc([N+](=O)[O-])c(N)n3)nc2-c2ccc(Cl)cc2Cl)n1
Reply: 58
